# Target Of Assay: T1, human TREM2 (human, UniProt Q9NZC2 19-230)
# T1 sequence: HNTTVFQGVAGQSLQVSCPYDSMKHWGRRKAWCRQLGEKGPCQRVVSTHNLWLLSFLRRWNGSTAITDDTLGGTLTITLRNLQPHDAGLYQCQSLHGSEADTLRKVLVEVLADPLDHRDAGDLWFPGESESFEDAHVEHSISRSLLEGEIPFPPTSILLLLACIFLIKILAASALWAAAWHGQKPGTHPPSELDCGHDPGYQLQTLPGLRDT
# Assay Overview: cell-based or functional assay
Property Measured: pSYK/TotSYK EC50 (nM)
Just the number in nM, nothing appended.

Here are 3 binders together with their reported answers.
Exercise: Recorded pSYK/TotSYK EC50 (nM) of EOS006181 (antibody, V domains shown) VH: EVQLVESGGGLVQPGRSLRLSCTASGFTFDDHAMSWFRQAPGKGLEWVGFIGSKAYGGTTEYTASVKGRFTISRDGSKSIAYLQMNSLKTEDTAVYYCARGKRYSYTYWTPAFDVWGQGTMVTVSS VL: DIQMTQSPSSLSASVGDRVTITCQASQDITNYLNWYQQKPGKAPKLLIYDASNLETGVPSRFSGSGSGTDFTFTISSLQPEDIATYYCQQYDSYLTFGGGTKVEIK , please.
Solution: 1.09

Exercise: Consider the binder EOS006173 (antibody, V domains shown, also called EOS061730) VH: EVQLVESGGGLVQPGRSLRLSCTASGFTFGDYAMSWFRQAPGKGLEWVGFIGSKAYGGTTEYTASVKGRFTISRDGSKSIAYLQMNSLKTEDTAVYYCARGKRRDYGYWHPAFDVWGQGTMVTVSS VL: DIQMTQSPSSLSASVGDRVTITCQASQDITNYLNWYQQKPGKAPKLLIYDASNLETGVPSRFSGSGSGTDFTFTISSLQPEDIATYYCQEYDQYLTFGGGTKVEIK and give its measured pSYK/TotSYK EC50 (nM).
Solution: 1.08

Exercise: Can you look up the measured pSYK/TotSYK EC50 (nM) of EOS006171 (antibody, V domains shown) VH: QVQLVESGGGLVKPGGSLRLSCAASGFTFSDYYMSWIRQAPGKGLEWVSYISSSGSTIYYADSVKGRFTISRDNAKNSLYLQMNSLRAEDTAVYYCARLGGYYSLGPMDVWGQGTTVTVSS VL: EIVLTQSPATLSLSPGERATLSCRASQSVSSYLAWYQQKPGQAPRLLIYDASNRATGIPARFSGSGSGTDFTLTISSLEPEDFAVYYCQQDSAFPFTFGGGTKVEIK for me?
Solution: 9.7

Turning now to a further binder:
Exercise: Give the measured pSYK/TotSYK EC50 (nM) of 6E7 (antibody, V domains shown) VH: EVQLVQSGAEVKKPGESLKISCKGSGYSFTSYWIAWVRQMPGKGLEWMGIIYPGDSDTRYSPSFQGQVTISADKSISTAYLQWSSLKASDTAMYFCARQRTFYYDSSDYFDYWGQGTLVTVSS VL: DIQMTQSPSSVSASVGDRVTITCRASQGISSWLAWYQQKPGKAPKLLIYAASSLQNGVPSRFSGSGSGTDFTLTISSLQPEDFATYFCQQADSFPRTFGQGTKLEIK .
Solution: 1.29
